system: U-2932; experiment: growth inhibition by drug alone (1 - RLU/untreated control) (fraction); higher = stronger inhibition; conditions: 10 nM; time (day): 3; 177Lu-lilotomab satetraxetan 0 ug/ml
List of growth inhibition by drug alone values.

Molecule	Measurement Target	growth inhibition by drug alone
COc1ccc(CCN2CCN(CCCc3ccccc3)CC2)cc1OC	U-2932	0.0269
COc1cc2ncnc(Nc3ccc(F)c(Cl)c3)c2cc1OCCCN1CCOCC1	U-2932	0.0523
N#CC1(c2ccc(NC(=O)c3cccnc3NCc3ccncc3)cc2)CCCC1	U-2932	0.0813
O=C1NC(=O)/C(=C\c2cccc(C(F)(F)F)c2)S1	U-2932	-0.0629
c1ccc(-c2nn3c(c2-c2ccnc4cc(OCCN5CCOCC5)ccc24)CCC3)nc1	U-2932	0.0304
CCCCCOC(=O)Nc1nc(=O)n([C@@H]2O[C@H](C)[C@@H](O)[C@H]2O)cc1F	U-2932	-0.0672
COc1cc([C@@H]2c3cc4c(cc3[C@@H](O[C@@H]3O[C@@H]5CO[C@@H](C)O[C@H]5[C@H](O)[C@H]3O)[C@H]3COC(=O)[C@H]23)OCO4)cc(OC)c1O [Etoposide (VP-16)]	U-2932	-0.0657
